Documented INHIBITION across a set of compounds
- Tested on: Plasmodium berghei
- ASSAY COMMENT: Screen against P. berghei liver stage (PbLuc), transformed with Luciferase, at 10uM
- Type: functional, HepG2
- MEASUREMENT PARAMETERS: tested at 10 uM
The campaign covered roughly 69,000 compounds. About 8,600 (12%) showed an effect of 50% or more. This excerpt belongs to a sample that is enriched for strong results.
Numbers only; they are read as %.

c1ccc(-c2nccc(CNC3CCc4ncnn4C3)n2)cc1 (stereo not drawn)
36.1

# INHIBITION (compound: CCn1cc(NC(=O)NCC(C)O)cn1 (stereo not drawn) ) is 13.1

# INHIBITION (compound: Cc1cc(N2CCCN(C(=O)Cc3csc(C)n3)CC2)ccn1 ) is -13.2

# INHIBITION (compound: Cc1nc(CN2CCO[C@@H]3CN(C(=O)NC(C)C)CC[C@@H]3C2)cs1 ) is 36.4

# INHIBITION (compound: CC1CCC(NS(=O)(=O)CC(=O)Nc2ccccc2N2CCCC2)CC1 (stereo not drawn) ) is -52.2

# INHIBITION (compound: CCc1nc(N2CCC3(CCC(=O)N(CCCO)C3)CC2)no1 ) is 35.6

# INHIBITION (compound: Cc1nnc2n1CCN(C(=O)c1cc(C)n(-c3ccccc3)c1C)C2 ) is 44.3

# INHIBITION (compound: Cc1nc(NC2CCCC2)cc(C2CCN2c2ncccn2)n1 (stereo not drawn) ) is 26.7

---

- Test system: Plasmodium berghei
- ASSAY COMMENT: Screen against P. berghei liver stage (PbLuc), transformed with Luciferase, at 10uM
- Type: functional, HepG2
- MEASUREMENT PARAMETERS: tested at 10 uM
Among all 69,000 compounds or so, about 8,600 (12%) showed an effect of 50% or more. The sample holds strong results, similar compounds and a random draw of the others, so the mix is not that of the screen.
Note that class boundaries on INHIBITION are label 0 = under 20%, label 1 = from 20% up to 40%, label 2 = 40% and over

COc1ccc(C(C#N)NC(=O)Cc2ccc(F)c(F)c2)c(OC)c1 (stereo not drawn)
label 0
Cc1cc2n(n1)[C@@H](C(F)(F)F)C[C@@H](C1CCCN(C(=O)C(C)C)C1)N2 (stereo partly drawn)
label 0
COc1ccc(CCC(=O)N2CCNCC2C(=O)N2CCOCC2)cc1 (stereo not drawn)
label 1
CCN1CCN(CCCNC(=O)c2cc3ccc(C)cc3nc2C)CC1
label 1
CC1CN(Cc2nccn2C)CCN1c1ccc2nncn2n1 (stereo not drawn)
label 2

Req: Sort Cc1nc2cc(-c3nccn3C)nn2c(N2CCCC(O)C2)c1C (stereo not drawn) into one of the categories.
Resp: label 0

Req: Sort O=C(CSCC1CC1)N1CCCN(Cc2ccc(F)cc2)CC1 into one of the categories.
Resp: label 1

Req: Sort Cc1ccc(CN2CCOC3(COCCN(C(C)C)C3)C2)o1 (stereo not drawn) into one of the categories.
Resp: label 2

Req: Sort Nc1nc(N)c2c(n1)OC1(CCCN(Cc3nccs3)CC1)C2 (stereo not drawn) into one of the categories.
Resp: label 0

Req: Sort O=C(CN1CCOCC1)N(c1ccccc1)c1ccccc1 into one of the categories.
Resp: label 2

Req: Sort CC1(C)O[C@@](C)([C@H]2CC3(CCN(c4cnccn4)CC3)CO2)CC[C@@H]1O into one of the categories.
Resp: label 1

Req: Sort COCCN1CCCn2c(nc(CNS(C)(=O)=O)cc2=O)C1 into one of the categories.
Resp: label 1
